B1: TMEM175 (parent)
chain: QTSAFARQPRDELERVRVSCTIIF

Variants of: B1
Experiment: protein stability index of a GFP-peptide fusion (GPS, HEK-293T) (PSI 1-6); higher = more stable;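 further: lentivirally expressed fusions sorted by FACS into six bins by GFP to DsRed ratio, PSI derived from sequencing read proportions per bin multiplied by bin number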
Settings: c terminus: a fixed tail appended
REPORTED PROPERTY: protein stability index
Lab note: record the figure alone, no unit after it.

The following variants have reported results that may help.
I22S : 2.28
R7C : 3.01
R15W : 3.37
C20E : 2.22
V18L : 1.08

Ask: Dear colleague, I am looking for the recorded protein stability index of the following variant: S3M
Reply: 3.41

Ask: Would you kindly repeat that for F24L ?
Reply: 2.47

Ask: Would you kindly repeat that for F5N ?
Reply: 1.65

Ask: Would you kindly repeat that for R17L ?
Reply: 4.15

Ask: Would you kindly repeat that for F5T ?
Reply: 2.01

Ask: Would you kindly repeat that for Q8I ?
Reply: 2.01

Ask: Would you kindly repeat that for E12M ?
Reply: 1.89

Ask: Would you kindly repeat that for D11S ?
Reply: 2.81
